Biological target: T1, Human ALPP (leucine zipper) (human)
T1 construct: Whole entry: ALPP fused with a cysteine stabilised leucine zipper and His tag; also called hALPP
T1 chain: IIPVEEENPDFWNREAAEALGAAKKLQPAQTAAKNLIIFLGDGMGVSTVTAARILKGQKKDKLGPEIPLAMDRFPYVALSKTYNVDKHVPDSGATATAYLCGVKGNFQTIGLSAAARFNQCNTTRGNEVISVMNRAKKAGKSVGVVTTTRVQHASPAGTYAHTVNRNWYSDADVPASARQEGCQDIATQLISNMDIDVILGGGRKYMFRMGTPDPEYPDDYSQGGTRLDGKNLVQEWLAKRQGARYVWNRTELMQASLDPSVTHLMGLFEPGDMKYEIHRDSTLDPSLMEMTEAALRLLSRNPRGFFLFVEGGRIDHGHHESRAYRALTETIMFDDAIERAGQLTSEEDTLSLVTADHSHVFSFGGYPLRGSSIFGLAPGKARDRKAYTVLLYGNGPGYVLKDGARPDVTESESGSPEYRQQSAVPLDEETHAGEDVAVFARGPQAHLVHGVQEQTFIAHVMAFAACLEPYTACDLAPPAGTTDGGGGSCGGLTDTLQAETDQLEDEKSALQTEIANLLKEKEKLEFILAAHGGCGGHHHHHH
Assay: BLI, antigen immobilised
Experimental: Binding kinetics were determined using the Biolayer Interferometry (BLI) Octet K2 system (Sartorius). […] All assays were conducted in PBS with a plate temperature of 25° C. Ka (M⁻¹s⁻¹), Kd (s⁻¹) and KD (nM) values were determined using Octet Data Analysis High Throughput software (ForteBio) for Biolayer Interferometry.
# kon annotations

Solved cases (3 shown):
BINDER	READOUT LABEL	RECORDED RESULT
B09 (VHH, not shown: small tags and cut ends) VHH: QVQLVESGGGSVQAGGSLRLSCAASGPSLSHYAMGWFRQAPGKEREFVAGISWGGGRTSYTDSVKGRFTISRDNAKNTVYLQMNNLKPEDTGVYYCAGRYGRGRNVEYEYDYWGQGTQVTVSS	kon	237000 M⁻¹ s⁻¹
F12 (VHH, not shown: small tags and cut ends) VHH: QVQLVESGGGLVEAGGSLRLSCAVSGSALSDYNIGWFRQAPGKEREFVARKTWDGSSTKYDDSVKGRFTVSIDNAKNTAYLQMNSLKTEDTAVYYCAAGRYSRVRGWEYDYWGQRTQVTVSS	kon	38600 M⁻¹ s⁻¹
F09 (VHH, not shown: small tags and cut ends) VHH: QVQLVESGGGSVQAGGSLRLSCAASGPSLSNYAMGWFRQAPGKEREFVAGISWGGGRTSCTDSVKGRFTISRDNAKNTVYLQMNNLKPEDTGVYYCAGRYGRGRNVEYEYDYWGQGTQVTVSS	kon	40600 M⁻¹ s⁻¹

Q: For the binder shown here, H09 (VHH, not shown: small tags and cut ends) VHH: QVQLVESGGGSVQTGGSLRLSCAASGPSLSNYAMGWFRQAPGKEREFVAGISWGGGRTNYLDSVKGRFTISRDNAKNTMYLQMNSLKPEDTAVYYCAGRYGRGRDVEYEYDYWGQGTQVTVSS , give the reported kon.
A: 58600 M⁻¹ s⁻¹

Entry source: patent US20260216242A1
